target: kappa opioid receptor (PathHunter U2OS hOPRK1 membranes) (Homo sapiens, UniProt P41145); construct: host or cells: U2OS (PathHunter U2OS hOPRK1 β-arrestin cell line); test: Tritiated U69,593 binding for KOP-R membranes
Sequence (P41145 whole entry): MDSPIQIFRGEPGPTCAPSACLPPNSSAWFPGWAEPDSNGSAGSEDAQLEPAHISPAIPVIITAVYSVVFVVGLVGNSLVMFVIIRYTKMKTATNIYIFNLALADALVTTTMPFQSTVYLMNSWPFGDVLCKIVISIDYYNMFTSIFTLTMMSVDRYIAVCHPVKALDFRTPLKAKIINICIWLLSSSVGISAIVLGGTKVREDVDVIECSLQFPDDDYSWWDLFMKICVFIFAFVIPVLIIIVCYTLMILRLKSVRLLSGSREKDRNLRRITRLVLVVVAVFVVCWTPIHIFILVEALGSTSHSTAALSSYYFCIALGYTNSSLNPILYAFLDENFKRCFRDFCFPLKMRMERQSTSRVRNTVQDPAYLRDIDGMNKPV
Reported IC50 values for a set of compounds
# value in nM; strip the unit string

Please list IC50 recorded for the compound O=C(Cc1ccc(Cl)c(Cl)c1)N1CCN(CC2CCCC2)[C@@H]2COC[C@H](N3CCCC3)[C@H]21 (racemic) [Example 5A54] 73

Please list IC50 recorded for the compound CN1CCN(C(=O)Cc2ccc(Cl)c(Cl)c2)[C@H]2[C@H]1COC[C@@H]2N1CCCC1 (racemic) [Example 5A23] 103

Please list IC50 recorded for the compound O=C(Cc1ccc(Cl)c(Cl)c1)N1CCN(CC2CCC2)[C@@H]2COC[C@H](N3CCCC3)[C@H]21 (racemic) [Example 5A55] 57

###

target: kappa opioid receptor (PathHunter U2OS hOPRK1 β-arrestin cell line) (Homo sapiens); construct: host or cells: U2OS (PathHunter U2OS hOPRK1 β-arrestin cell line); assay: β-arrestin coupling (PathHunter Detection Kit); format: cell-based; settings: U2OS, read-out: β-arrestin coupling % efficacy
Sequence (P41145 whole entry): as above
readout: Emax at 10 µM (%)
# value in %; strip the unit string

O=C(Cc1ccc(Cl)c(Cl)c1)N1CCN[C@@H]2COC[C@H](N3CCCC3)[C@H]21 (racemic) = 67
O=C(Cc1ccc(F)c(Cl)c1)N1CCN[C@@H]2COC[C@H](N3CCCC3)[C@H]21 (racemic) = 29

Consider the compound CS(=O)(=O)N1CCN(C(=O)Cc2ccc(Cl)c(Cl)c2)[C@H]2[C@H]1COC[C@@H]2N1CCCC1 (racemic) tested on kappa opioid receptor (PathHunter U2OS hOPRK1 β-arrestin cell line) (Homo sapiens); state its Emax at 10 µM. 55

###

biological target: kappa opioid receptor (PathHunter U2OS hOPRK1 membranes) (Homo sapiens, UniProt P41145); construct: host or cells: U2OS (PathHunter U2OS hOPRK1 β-arrestin cell line); experiment: Tritiated U69,593 binding for KOP-R membranes; conditions: 1.0 nM [3H]U69,593, 60 minutes at 30° C.; read-out: Binding IC50
Decision: IC50 beneath 400 nM gives Y; IC50 meeting or exceeding 400 nM gives N.

# count of solved cases: 5
O=C(Cc1ccc(F)c(Cl)c1)N1CCN[C@@H]2COC[C@H](N3CCCC3)[C@H]21 (racemic) = Y
O=C(Cc1ccc(C(F)(F)F)cc1)N1CCN[C@@H]2COC[C@H](N3CCCC3)[C@H]21 (racemic) = Y
O=C(Cc1cccc(Cl)c1Cl)N1CCN[C@@H]2COC[C@H](N3CCCC3)[C@H]21 (racemic) = N
Cc1ccc(CC(=O)N2CCN[C@@H]3COC[C@H](N4CCCC4)[C@H]32)cc1C (racemic) = N
Cc1cc(CC(=O)N2CCN[C@@H]3COC[C@H](N4CCCC4)[C@H]32)ccc1Cl (racemic) = Y

// next entry
State whether 400 nM exceeds IC50 recorded for O=C(Cc1ccc(Cl)cc1)N1CCN[C@@H]2COC[C@H](N3CCCC3)[C@H]21 (racemic) . N

###

Reported pEC50 values for a set of compounds
biological target: human kappa opioid receptors (Homo sapiens, UniProt P41145); construct: expressed in transfected cells; host or cells: U2OS; experiment: [35S]GTPγS stimulation, membranes from U2OS cells; format: biochemical
Sequence (P41145 whole entry): as above
pEC50 is defined as minus the log10 of a concentration measured in mol/L.

Please list pEC50 recorded for the compound O=C(Cc1ccc(Cl)c(Cl)c1)N1CCN(S(=O)(=O)C2CC2)[C@@H]2COC[C@H](N3CCCC3)[C@H]21 (racemic) [Example 5A52] 8.52

Please list pEC50 recorded for the compound CS(=O)(=O)N1CCN(C(=O)Cc2ccc(Cl)c(Cl)c2)[C@H]2[C@H]1COC[C@@H]2N1CCCC1 (single isomer, unassigned) [Example 5A44A] 8.47

Please list pEC50 recorded for the compound O=C(Cc1cc(Cl)cc(Cl)c1)N1CCN[C@@H]2COC[C@H](N3CCCC3)[C@H]21 (racemic) [Example 5A32] 6.33

Please list pEC50 recorded for the compound O=C(Cc1ccc(Cl)c(C(F)(F)F)c1)N1CCN[C@@H]2COC[C@H](N3CCCC3)[C@H]21 (racemic) [Example 5A46] 8.20

Please list pEC50 recorded for the compound O=C(Cc1cccc(Cl)c1Cl)N1CCN[C@@H]2COC[C@H](N3CCCC3)[C@H]21 (racemic) [Example 5A48] 4.66

Please list pEC50 recorded for the compound O=C(Cc1ccc(Cl)c(Cl)c1)N1CCN(CC2CCCC2)[C@@H]2COC[C@H](N3CCCC3)[C@H]21 (racemic) [Example 5A54] 7.51
